test system: Plasmodium falciparum strain 3D7; experiment: P. falciparum growth by (3H)hypoxanthine uptake; format: cell-based; conditions: in vitro
PROPERTY_LABEL: IC50 (µM)
One number for each entry, in µM.

input: Need IC50 of CCN(CC)c1ccc(C=O)cc1 [DEAB, diethylaminobenzaldehyde] , thanks.
output: 277

* * *

molecular target: UniProt U3KNP2; test: QR1 activity assay (Example 2); format: biochemical, rabbit; design: QR1 was purified from rabbit liver as previously described; from tissue; host or cells: rabbit liver; conditions: QR1 purified from rabbit liver; read-out: QR1 IC50 (μM) ± SEM
PROPERTY_LABEL: IC50 (µM)
One number for each entry, in µM.

input: Need IC50 of OC(c1cc(C(F)(F)F)nc2c(C(F)(F)F)cccc12)C1CCCCN1 (stereo not drawn) , thanks.
output: 616

New cases:
input: Need IC50 of C=C[C@H]1C[N@@]2CC[C@H]1C[C@H]2[C@H](O)c1ccnc2ccc(OC)cc12 , thanks.
output: 9.6

* * *

biological target: QR1 (Oryctolagus cuniculus); assay: QR1 activity assay (Example 2); assay type: biochemical, rabbit; set-up: QR1 was purified from rabbit liver as previously described; from tissue; host or cells: rabbit liver
Sequence (U3KNP2 1-274): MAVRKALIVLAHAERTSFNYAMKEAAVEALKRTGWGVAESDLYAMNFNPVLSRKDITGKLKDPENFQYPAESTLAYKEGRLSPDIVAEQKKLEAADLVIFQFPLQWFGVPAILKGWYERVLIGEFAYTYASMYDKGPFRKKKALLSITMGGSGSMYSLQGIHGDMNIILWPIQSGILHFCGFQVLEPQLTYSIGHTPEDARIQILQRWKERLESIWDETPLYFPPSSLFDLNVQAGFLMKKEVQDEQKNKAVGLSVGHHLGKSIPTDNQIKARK
PROPERTY_LABEL: effect on QR1 activity

input: Need effect on QR1 activity of COc1cc(NC(C)CCCN)c2ncccc2c1 (stereo not shown) , thanks.
output: weakly inhibited

input: Need effect on QR1 activity of OC(c1cc(C(F)(F)F)nc2c(C(F)(F)F)cccc12)C1CCCCN1 (stereo not shown) , thanks.
output: weakly inhibited

input: Need effect on QR1 activity of CCN(CC)CCCC(C)Nc1c2ccc(Cl)cc2nc2ccc(OC)cc12 (stereo not shown) , thanks.
output: not affected

input: Need effect on QR1 activity of CCN(CC)CCCC(C)Nc1ccnc2cc(Cl)ccc12 (stereo not shown) , thanks.
output: not affected

* * *

Answer each item with its documented Kd.
molecular target: QR2 (Homo sapiens, UniProt P16083); test: hQR2 activity assay, enzyme purified from human RBC (Example 1); assay type: biochemical; design: Pure hALDH was eluted with 5 mM NADH and pure hQR2 with 5 mM NMeN; tissue Valley Biomedical (blood); host or cells: human red blood cells; details: purified hQR2 from human RBC; menadione substrate; read-out: Kd(app)
Sequence (P16083 whole entry): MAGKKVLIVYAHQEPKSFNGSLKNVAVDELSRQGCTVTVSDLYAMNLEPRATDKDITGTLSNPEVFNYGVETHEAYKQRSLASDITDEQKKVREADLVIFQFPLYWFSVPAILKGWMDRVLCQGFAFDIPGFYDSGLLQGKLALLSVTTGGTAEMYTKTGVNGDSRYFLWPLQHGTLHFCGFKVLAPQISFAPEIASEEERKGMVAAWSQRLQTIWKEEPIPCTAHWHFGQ
Give bare numbers, in µM.

input: Need Kd of CCN(CC)CCCC(C)Nc1ccnc2cc(Cl)ccc12 (centres unmarked) , thanks.
output: 24

New cases:
input: Need Kd of Cc1cc(N)c2ccccc2n1 , thanks.
output: 0.81

* * *

molecular target: UniProt P16083; assay: QR2 activity assay with recombinant QR2 (Example 2); type: biochemical; set-up: GST (N, cleaved yes); made in house; E. coli only by inference
PROPERTY_LABEL: inhibition of QR2 activity

input: Need inhibition of QR2 activity of CCN(CC)CCCC(C)Nc1c2ccc(Cl)cc2nc2ccc(OC)cc12 (stereo not shown) [QC, Quinacrine] , thanks.
output: potent inhibitors

input: Need inhibition of QR2 activity of C=C[C@H]1C[N@@]2CC[C@H]1C[C@H]2[C@H](O)c1ccnc2ccc(OC)cc12 [Q, quinine] , thanks.
output: less potent inhibitors

input: Need inhibition of QR2 activity of OC(c1cc(C(F)(F)F)nc2c(C(F)(F)F)cccc12)C1CCCCN1 (stereo not shown) [MQ, mefloquine] , thanks.
output: less potent inhibitors

input: Need inhibition of QR2 activity of COc1cc(NC(C)CCCN)c2ncccc2c1 (stereo not shown) [PQ, primaquine] , thanks.
output: potent inhibitors
